The values you see were collected from patent US20250304600A1.

- Test target: Recombinant human c-KIT kinase (Homo sapiens, UniProt P10721)
- Sequence (P10721 544-976 limits assumed): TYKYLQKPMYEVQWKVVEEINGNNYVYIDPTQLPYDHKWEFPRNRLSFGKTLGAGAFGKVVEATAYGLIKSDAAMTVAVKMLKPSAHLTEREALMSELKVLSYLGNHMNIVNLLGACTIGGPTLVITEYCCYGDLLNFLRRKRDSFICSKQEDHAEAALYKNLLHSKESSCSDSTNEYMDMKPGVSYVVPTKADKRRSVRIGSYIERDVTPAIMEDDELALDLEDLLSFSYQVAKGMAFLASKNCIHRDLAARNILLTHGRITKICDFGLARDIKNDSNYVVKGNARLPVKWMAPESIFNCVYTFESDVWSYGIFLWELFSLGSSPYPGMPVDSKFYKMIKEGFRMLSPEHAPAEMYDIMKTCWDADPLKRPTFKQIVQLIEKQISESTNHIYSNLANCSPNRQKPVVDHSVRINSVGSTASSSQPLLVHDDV
- Assay overview: c-KIT kinase chemiluminescence assay (ADP-Glo)
- Experimental context: ATP 50 μM
Consider the following compounds; for each one, report its IC50.

Q. Notebook entry, Recombinant human c-KIT kinase (Homo sapiens, UniProt P10721) assay: IC50 of CCn1nnc(-c2cnc(C)c(NC(=O)c3cnn4ccc(N5CC6(C5)CC(O)(C(F)F)C6)cc34)c2)n1 [Example 382] = ?
A. 100 to 1000 nM

Q. Missing value: IC50, Recombinant human c-KIT kinase (Homo sapiens, UniProt P10721), entry Cc1ncc(-c2noc(C3C[C@@H]3F)n2)cc1NC(=O)c1cnn2ccc(-c3cn(C[C@H](O)C(C)(C)O)nc3C3CC3)cc12 (stereo partly shown) [Example 406] . Fill in?
A. < 100 nM

Q. Report IC50 for Cc1ncc(-c2nnn(CCO)n2)cc1NC(=O)c1cnn2ccc(N3CC4(C3)CC(O)(C(F)F)C4)cc12 [Example 387] tested on Recombinant human c-KIT kinase (Homo sapiens, UniProt P10721).
A. > 1000 nM

Q. // lookup IC50 | system=Recombinant human c-KIT kinase (Homo sapiens, UniProt P10721) | key= Cc1ncc(-c2noc([C@H]3C[C@@H]3F)n2)cc1NC(=O)c1cnc(-c2ccc3nn(CC(C)(C)O)c(C)c3c2)o1 [Example 23a]
A. 100 to 1000 nM

Q. Given the entry Cc1ncc(-c2ncc(OC(F)(F)F)cn2)cc1NC(=O)c1cnn2ccc(-c3c(C)nc(N)nc3C)cc12 [Example 364] , what IC50 was observed with Recombinant human c-KIT kinase (Homo sapiens, UniProt P10721)?
A. > 1000 nM

Q. Request body: readout IC50, system Recombinant human c-KIT kinase (Homo sapiens, UniProt P10721), query Cc1ccc(-c2noc([C@H]3C[C@@H]3C(F)F)n2)cc1NC(=O)c1cnn2ccc(-c3c(C)nc(N)nc3C)cc12 [Example 390] . Return the value.
A. 100 to 1000 nM

Q. Can you look up IC50 on Recombinant human c-KIT kinase (Homo sapiens, UniProt P10721) for Cc1ccc(-c2noc(C3C[C@@H]3F)n2)cc1NC(=O)c1ccc(NC(=O)OC(C)(C)C)nc1 (stereo partly shown) [Example 396] ?
A. > 1000 nM

Q. For Recombinant human c-KIT kinase (Homo sapiens, UniProt P10721), provide IC50 of Cc1ncc(-c2nnn(C3CC3)n2)cc1NC(=O)c1cnn2ccc(N3CC4(C3)CC(O)(C(F)F)C4)cc12 [Example 403] please.
A. 100 to 1000 nM

Q. # returns recorded IC50 (system: Recombinant human c-KIT kinase (Homo sapiens, UniProt P10721)) for Cc1ncc(-c2nnn(C[C@@H](O)C(F)F)n2)cc1NC(=O)c1cnn2ccc(N3CC4(C3)CC(O)(C(F)F)C4)cc12 [Example 379]
A. 100 to 1000 nM

Q. Which measured IC50 belongs to Cc1ncc(-c2nnn(C[C@H](O)C(F)(F)F)n2)cc1NC(=O)c1cnn2ccc(N3CC4(C3)CC(O)(C(F)F)C4)cc12 [Example 380] , tested on Recombinant human c-KIT kinase (Homo sapiens, UniProt P10721)?
A. 100 to 1000 nM

====

- Test target: Recombinant human c-KIT kinase (Homo sapiens, UniProt P10721)
- Assay overview: c-KIT kinase chemiluminescence assay (ADP-Glo)
- Experimental context: ATP 50 μM
Recorded endpoint: IC50

Q. Please look up its IC50: Cc1ncc(-c2nnc(C3C[C@@H]3F)s2)cc1NC(=O)c1cnn2ccc(N3CC4(C3)CC(O)(C(F)F)C4)cc12 (stereo partly drawn)
A. 100 to 1000 nM

Q. Requested read-out: IC50. Entry: O=C(Nc1cc(-c2ncc(C3CC3)cn2)ccc1C(F)F)c1cnn2ccc(Br)cc12
A. > 1000 nM

Q. What does the data say about its IC50? Entry: Cc1ccc(-c2noc([C@H]3C[C@@H]3F)n2)cc1NC(=O)c1cnc2n1Cc1ccccc1-2
A. < 100 nM

Q. So what does the record say about IC50 for Cc1ccc(-c2noc(C3C[C@@H]3C(F)F)n2)cc1NC(=O)c1ccc(N)nc1 (stereo partly drawn) ?
A. > 1000 nM

Q. Query (compound): Cc1nc(N)nc(C)c1-c1ccn2ncc(C(=O)Nc3cc(-c4noc(C5CN(C(=O)[C@H]6C[C@@H]6F)C5)n4)sc3C)c2c1 ; field requested: IC50
A. > 1000 nM

Q. Reported IC50 for Cc1nc(N)nc(C)c1-c1ccn2ncc(C(=O)Nc3cc(-c4noc(C5CN(C(=O)OC(C)(C)C)C5)n4)sc3C)c2c1 : what is it?
A. > 1000 nM

Q. Quick one: IC50 for Cc1ccc(-c2noc([C@H]3C[C@@H]3F)n2)cc1NC(=O)c1cnc2cccnn12 ?
A. > 1000 nM

Q. Name the recorded IC50 for Cc1ncc(-c2ccn3ncc(C(=O)Nc4cc(-c5noc([C@H]6C[C@@H]6F)n5)ccc4C)c3c2)c(C)n1 .
A. < 100 nM

Q. Which IC50 is listed for Cc1ncc(-c2noc(C3CC(OC(F)F)C3)n2)cc1NC(=O)c1cnn2ccc(N3CC4(C3)CC(O)(C(F)(F)F)C4)cc12 (stereo not drawn) ?
A. 100 to 1000 nM
